These entries and their values trace back to ChEMBL document CHEMBL1146870.

TARGET SYSTEM: Cytochrome P450 2C19 (Homo sapiens, UniProt P33261)
Sequence (P33261 whole entry): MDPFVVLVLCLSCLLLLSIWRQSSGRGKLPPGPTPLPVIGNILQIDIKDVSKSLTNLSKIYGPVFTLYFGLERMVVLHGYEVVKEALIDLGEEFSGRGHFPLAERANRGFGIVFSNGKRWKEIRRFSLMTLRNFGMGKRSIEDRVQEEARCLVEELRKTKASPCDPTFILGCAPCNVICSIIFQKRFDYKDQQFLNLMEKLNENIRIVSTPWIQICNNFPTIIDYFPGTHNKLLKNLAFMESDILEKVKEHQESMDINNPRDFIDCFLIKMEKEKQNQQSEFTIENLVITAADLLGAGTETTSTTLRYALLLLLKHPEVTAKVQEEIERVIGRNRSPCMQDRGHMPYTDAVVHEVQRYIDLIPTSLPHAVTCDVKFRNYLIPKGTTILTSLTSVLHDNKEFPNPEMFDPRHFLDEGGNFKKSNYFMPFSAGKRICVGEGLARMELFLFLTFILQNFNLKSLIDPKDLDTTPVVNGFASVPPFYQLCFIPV
ENDPOINT: IC50

Look up IC50 for this compound: `O=C(Nc1ccc2cccnc2c1)c1ccc(-c2ccccc2)nc1` > 18 µM

----------
TARGET SYSTEM: UniProtKB Q8NER1
ASSAY EXPLANATION: Antagonist activity against human TRPV1 assessed as inhibition of capsaicin-induced calcium influx by FLIPR assay
Assay type: functional
I'd be grateful if you could share measured pKb for these entries.
API doc: respond with a numeric literal and nothing else, no unit.

Look up pKb for this molecule: `CNS(=O)(=O)c1cccc(-c2ccc(C(=O)Nc3ccc4c(c3)N(C)CCC4)cc2)c1` 7

Look up pKb for this molecule: `COCC(=O)N1CCCc2ccc(NC(=O)c3ccc(-c4ccccc4)cc3)cc21` 7.2

Look up pKb for this molecule: `COCCN1CCCc2ccc(NC(=O)c3ccc(-c4ccccc4)cc3)cc21` 7.3

Look up pKb for this molecule: `O=C(Nc1ccc2c(c1)NCCC2)c1ccc(-c2ccccc2)cc1` 7.7

Look up pKb for this molecule: `O=C(Nc1ccc2cnccc2c1)c1ccc(-c2ccccc2)cc1` 7.7

Look up pKb for this molecule: `CN1CCCc2cc(NC(=O)c3ccc(-c4ccccc4)cc3)ccc21` 7.1

Look up pKb for this molecule: `CN(C)CCN1CCCc2ccc(NC(=O)c3ccc(-c4ccccc4)cc3)cc21` 7.4

Look up pKb for this molecule: `CN1CCCc2ccc(NC(=O)c3ccc(-c4ccccc4)cc3Cl)cc21` 7.1

Look up pKb for this molecule: `CN1CCCc2ccc(NC(=O)c3ccc(-c4ccccc4)nc3)cc21` 7.8

----------
TARGET SYSTEM: Transient receptor potential cation channel subfamily V member 1 (Homo sapiens)
Sequence (Q8NER1 whole entry): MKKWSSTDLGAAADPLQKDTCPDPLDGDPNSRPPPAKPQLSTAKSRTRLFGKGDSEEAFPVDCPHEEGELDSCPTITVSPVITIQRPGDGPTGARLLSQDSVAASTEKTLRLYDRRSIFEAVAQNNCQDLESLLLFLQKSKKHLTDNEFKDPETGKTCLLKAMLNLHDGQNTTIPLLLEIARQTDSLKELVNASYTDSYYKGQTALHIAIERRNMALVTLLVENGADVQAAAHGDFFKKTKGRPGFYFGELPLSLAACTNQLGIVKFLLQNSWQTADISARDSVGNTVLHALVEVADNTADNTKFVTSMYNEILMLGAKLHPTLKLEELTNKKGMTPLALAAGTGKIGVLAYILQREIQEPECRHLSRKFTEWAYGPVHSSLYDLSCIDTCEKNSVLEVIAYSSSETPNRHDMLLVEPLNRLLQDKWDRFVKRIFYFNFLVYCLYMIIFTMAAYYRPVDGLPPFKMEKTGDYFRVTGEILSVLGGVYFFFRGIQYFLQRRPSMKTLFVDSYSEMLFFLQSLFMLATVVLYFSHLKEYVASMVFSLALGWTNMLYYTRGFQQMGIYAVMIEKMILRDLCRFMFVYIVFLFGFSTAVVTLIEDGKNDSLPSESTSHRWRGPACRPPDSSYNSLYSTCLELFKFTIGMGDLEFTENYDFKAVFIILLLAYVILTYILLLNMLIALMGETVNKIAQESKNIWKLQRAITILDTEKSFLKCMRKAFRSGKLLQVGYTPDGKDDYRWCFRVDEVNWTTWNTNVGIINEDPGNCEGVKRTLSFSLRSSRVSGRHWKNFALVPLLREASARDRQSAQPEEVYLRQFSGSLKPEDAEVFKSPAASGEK
ASSAY EXPLANATION: Antagonist activity against human TRPV1 assessed as inhibition of capsaicin-induced calcium influx by FLIPR assay
Assay type: functional
ENDPOINT: pKb

Look up pKb for this compound: `COc1cc(-c2ccccc2)ccc1C(=O)Nc1ccc2c(c1)N(C)CCC2` < 6.8

Look up pKb for this compound: `O=C(Nc1cccc2cccnc12)c1ccc(-c2ccccc2)cc1` < 6.5

Look up pKb for this compound: `CN1CCCc2ccc(NC(=O)c3cccc(-c4ccccc4)c3)cc21` < 6.8
